target: SIRT2 (Homo sapiens, UniProt Q8IXJ6); experiment: SIRT2 deacetylase activity, recombinant SIRT2 with acetylated peptide H3K9Ac and NAD+; settings: read-out: % Inhibition SIRT2 (at 150 μM)
Sequence (Q8IXJ6 whole entry): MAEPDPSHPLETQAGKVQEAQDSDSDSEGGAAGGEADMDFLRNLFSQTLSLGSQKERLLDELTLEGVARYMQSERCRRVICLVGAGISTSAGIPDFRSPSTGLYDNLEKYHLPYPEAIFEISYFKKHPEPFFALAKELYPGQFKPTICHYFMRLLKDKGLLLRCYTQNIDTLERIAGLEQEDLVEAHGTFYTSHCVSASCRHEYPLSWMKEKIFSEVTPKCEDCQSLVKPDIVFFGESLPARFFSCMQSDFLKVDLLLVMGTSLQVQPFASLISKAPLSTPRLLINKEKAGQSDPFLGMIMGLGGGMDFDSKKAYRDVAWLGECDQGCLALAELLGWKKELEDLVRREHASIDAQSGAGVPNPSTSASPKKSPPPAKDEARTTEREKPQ
Task for the reader: assign each of the following molecules its reported inhibition at 150 µM.
# number then unit; no other words

Consider the following illustrative entries.
>>> print(df.to_string())
                                   molecule             valuekind  result
0  CCOC(=O)c1sc(NC(=O)Nc2cccc(OC)c2)nc1-c1ccc(Br)cc1 [Compound 5a]  inhibition at 150 µM     98%
1  CSc1cccc(NC(=O)Nc2nc(-c3ccc(Br)cc3)c(C)s2)c1 [Compound 3c]  inhibition at 150 µM     96%
2  COc1cccc(NC(=O)Nc2nc(-c3ccc(Br)cc3)c(C)s2)c1 [Compound 3b]  inhibition at 150 µM     93%

Please give inhibition at 150 µM for each item listed below.
1. CCOC(=O)c1sc(NC(=O)NCc2ccccc2)nc1-c1ccc(Br)cc1 [Compound 5d]
2. CC(=O)c1cccc(NC(=O)Nc2nc(-c3ccc(Br)cc3)c(C)s2)c1 [Compound 3a]
3. Cc1sc(NC(=O)NCc2ccccc2)nc1-c1ccc(Br)cc1 [Compound 3d]

output:
93%
100%
100%
